These data points were gathered from patent US20240116985A1.

Molecular target: full-length beta-Catenin (Uniprot ID P35222) (Homo sapiens, UniProt P35222)
Construct: 10 nM full-length beta-Catenin (Uniprot ID P35222)
Sequence (P35222 1-781): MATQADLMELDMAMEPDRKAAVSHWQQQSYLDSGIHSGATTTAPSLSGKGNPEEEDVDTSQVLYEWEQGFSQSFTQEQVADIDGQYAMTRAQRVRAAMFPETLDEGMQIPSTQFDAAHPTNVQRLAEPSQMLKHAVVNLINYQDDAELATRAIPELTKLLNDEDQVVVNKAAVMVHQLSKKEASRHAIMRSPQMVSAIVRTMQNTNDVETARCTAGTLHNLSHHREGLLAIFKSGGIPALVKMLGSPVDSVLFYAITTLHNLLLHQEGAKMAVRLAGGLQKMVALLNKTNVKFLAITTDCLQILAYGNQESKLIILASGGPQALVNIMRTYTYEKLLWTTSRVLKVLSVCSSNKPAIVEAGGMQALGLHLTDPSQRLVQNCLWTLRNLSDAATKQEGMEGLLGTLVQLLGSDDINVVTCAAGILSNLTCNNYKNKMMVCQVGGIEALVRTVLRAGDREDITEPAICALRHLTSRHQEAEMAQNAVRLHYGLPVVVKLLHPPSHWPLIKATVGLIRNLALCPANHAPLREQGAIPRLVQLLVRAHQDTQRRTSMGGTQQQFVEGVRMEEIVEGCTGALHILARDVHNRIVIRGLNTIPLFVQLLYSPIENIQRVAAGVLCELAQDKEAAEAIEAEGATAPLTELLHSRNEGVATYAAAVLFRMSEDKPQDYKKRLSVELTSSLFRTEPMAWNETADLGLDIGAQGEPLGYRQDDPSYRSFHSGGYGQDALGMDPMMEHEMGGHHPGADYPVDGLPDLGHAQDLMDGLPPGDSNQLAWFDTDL
Assay: Fluorescence polarization IC50 (beta-catenin / 5FAM-TCF4 10-53 competition)
Format: binding
Conditions: fluorescence polarization; read-out: beta-Catenin FP IC50
recordedEndpoint: IC50 (nM)
Enter your answer as a number in nM; do not include the unit.

// query IC50 value for entry CC(=O)N1CCC[C@]12CC=CCCCC1(CCCC=CCCCOC(=O)N3CC[C@@](C(=O)N[C@@H](Cc4ccccc4C(F)(F)F)C(=O)N[C@H](C(=O)N[C@@H](C)C(N)=O)[C@@H](C)c4csc5ccccc45)(C3)NC(=O)[C@H](CC(C)C)NC(=O)[C@H](Cc3ccccc3)NC(=O)[C@H](C)NC(=O)[C@H](CCC(N)=O)NC(=O)[C@H](Cc3cccc(C(=O)O)c3)NC(=O)[C@H](CC(=O)O)NC1=O)NC(=O)[C@H](CC(C)(C)C)NC(=O)[C@H](CC(=O)O)NC2=O (stereo partly shown)
52
